Value source: PubChem BioAssay

Exercise: state measured z-score for each of the compounds provided.
- procedure summary: resazurin metabolic signal in HepG2 cells – cell-based, resazurin fluorescence, 24 h, PK04 Diversity Set, profiling panel (AID 1172); further: test concentration not given here
- measurement conditions: HepG2 viability, higher = more signal
Answers are plain numbers.

Illustrative cases are given below, each with its answer.
- compound: "C[N+](C)(C)CCCCCCNC(=O)[C@@H]1C[C@@H]2C(=O)NCC(=O)N2[C@@H]1c1ccc(O)cc1"
  numeric result: 0.811
- compound: "COc1ccc(CCNC(=O)[C@@H]2c3ccccc3C(=O)N(Cc3ccccc3)[C@H]2c2ccc(CO)cc2)cc1"
  numeric result: 0.713

Value sought for every listed compound: z-score.
1. CCCC[C@@H](O)C1=C(COc2ccccc2)Cn2c(=O)n(-c3ccccc3)c(=O)n2[C@H]1CO
2. COc1ccc(C#Cc2ccc3c(c2)[C@]2(C(=O)N3)[C@H](c3ccc(OCCO)cc3)N3[C@H](c4ccccc4)[C@H](c4ccccc4)OC(=O)[C@H]3[C@@H]2C(=O)N2CCN(c3ncccn3)CC2)cc1
3. C=CC[C@]1(C(=O)N2CCOCC2)N=C(c2ccc(OCCCO)cc2)O[C@H]1c1ccccc1CN=[N+]=[N-]

Completion:
[-0.196, 1.45, -0.744]

Value sought for every listed compound: z-score.
1. CCCN1C(=O)[C@@]2(Cc3ccccc3)N=C(c3ccc(OCCCO)cc3)O[C@H]2c2ccccc21
2. C=CCOC(=O)[C@@H]1[C@H]2C(=O)O[C@H](c3ccccc3)[C@H](c3ccccc3)N2[C@H](c2ccc(OCCOC(=O)[C@@H]3C[C@@H]4C(=O)N[C@@H](CCCCNC(C)=O)C(=O)N4[C@@H]3c3ccc(O)cc3)cc2)[C@@]12C(=O)Nc1ccc(I)cc12

Completion:
0.167
0.971

Value sought for every listed compound: z-score.
1. N#Cc1ccc(NN2C(C(O)c3ccco3)C=CC3C(=O)N(c4ccccc4)C(=O)C32)cc1 (stereo not given)
2. O=C(C=C(CC(O)c1cccc(Cl)c1)OCCF)OCCF (stereo not given)
3. CN(C)CCCN1C(=O)[C@@]2(Cc3ccccc31)c1ccccc1C(=O)N(Cc1ccccc1)[C@H]2c1ccc(CO)cc1

Completion:
-0.674
-0.0453
1.18

Value sought for every listed compound: z-score.
1. C=C(CCCC)/C(=C/C[C@H](OC(=O)c1ccncc1)c1ccc(CO)o1)c1cc(C(=O)OC)ccc1OC
2. COC(=O)[C@@]1(Cc2ccccc2)[C@H]2c3cc(C(=O)N(C)C)n(Cc4ccc(O)c(OC)c4)c3C[C@H]2CN1C(=O)c1ccccc1
3. COC(=O)[C@]1(Cc2ccccc2CN=[N+]=[N-])N=C(c2ccc(OCCCO)cc2)O[C@@H]1c1ccccc1CN=[N+]=[N-]
4. COc1ccc([Si](C)(C)[C@@H]2[C@@H](CC(=O)N(CCO)Cc3ccccc3)O[C@]3(C(=O)N(C)c4c(Br)cc(C)cc43)[C@H]2C)cc1
5. Cc1ccc(F)cc1S(=O)(=O)N[C@@H]1CCN(C(=O)c2ccc(OC(C)C)cc2)C1

Completion:
1. -0.673
2. 0.563
3. -1.27
4. -1.57
5. 0.157

====

- procedure summary: JC-1 mitochondrial signal, unstimulated HepG2 cells – cell-based, JC-1 fluorescence, 24 h, 100 nL compound, profiling panel (AID 1167); further: test concentration not given here
- measurement conditions: HepG2 mitochondrial potential, higher = more signal
Exercise: state measured z-score for each of the compounds provided.
Give bare numbers.

Illustrative cases are given below, each with its answer.
- compound: "CN(C)C(=O)[C@@]1(CCC(=O)OC(C)(C)C)N=C(c2ccc(OCCCO)cc2)O[C@H]1c1ccccc1N=[N+]=[N-]"
  z-score: 1.45
- compound: "COc1ccc(C#Cc2ccc3c(c2)[C@]2(C(=O)N3)[C@H](C(=O)O)[C@H]3C(=O)O[C@H](c4ccccc4)[C@H](c4ccccc4)N3[C@@H]2c2ccc(OCCO)cc2)cc1"
  z-score: -4.14
- compound: "O=C(CS)NCCCCCNC(=O)[C@@H]1C[C@@H]2C(=O)N3CCC[C@H]3C(=O)N2[C@@H]1c1ccc(O)cc1"
  z-score: -0.264
- compound: "CCCCC(CC)C(O)C1C=CC2C(=O)NC(=O)C2N1Nc1ccccn1 (centres undefined)"
  z-score: 0.0822
- compound: "CC(C)=CCCC(C)=CC(O)C1C=CC2C(=O)N(c3ccccc3)C(=O)C2N1Nc1ccc([N+](=O)[O-])cc1 (centres undefined)"
  z-score: -1.07
- compound: "CC(C)C[C@@H]1NC(=O)[C@@]23C(=O)N[C@@H](Cc4ccccc4)C2[C@H](C)[C@@]2(C)O[C@H]2C3/C=C/C/C=C\\CNC(=O)[C@@H]2CCCN2C1=O (some centres undefined)"
  z-score: -0.00843
- compound: "C=CCC(OC(C)=O)[C@@H]1[C@@H](N(Cc2cccc3ccccc23)C(=O)Cc2ccc(F)cc2)c2cc(OCCCO)ccc2N1C(=O)Cc1ccc(OC)cc1 (some centres undefined)"
  z-score: 2.26
- compound: "N#Cc1ccc(NN2C(C(O)c3ccccc3)C=CC3C(=O)N(c4ccccc4)C(=O)C32)cc1 (centres undefined)"
  z-score: -0.782

Value sought for every listed compound: z-score.
1. Cc1ccccc1C(O)C1C=CC2C(=O)N(C)C(=O)C2N1Nc1ccc([N+](=O)[O-])cc1[N+](=O)[O-] (centres undefined)
2. Cc1ccc(S[C@]2(C(=O)NCc3ccccc3)CC(=O)N(C3Cc4ccccc4C3)[C@@H]2c2ccc(CO)cc2I)cc1
3. CO[C@H]1O[C@H](CO)[C@@H](OC(=O)c2ccc(Br)cc2)[C@@H]2OC(=O)[C@H](Cc3cccc(Br)c3)C/C=C/C[C@@H](Cc3cccc(Br)c3)C(=O)O[C@@H]12
4. O=C1O[C@@H](c2ccccc2)[C@@H](c2ccccc2)N2[C@@H](c3ccc(O)cc3)[C@]3(C(=O)Nc4ccc(C#CC5=CCCCC5)cc43)[C@@H](C(=O)Nc3nc4ccccc4s3)[C@H]12
5. C=C[C@@H](O)[C@H]1CC(c2ccccc2)=NO1
6. CC[C@@H]1[C@@H]2C3C(=O)N(CC)C(=O)C3CC(=O)[C@@H]2[C@H](c2ccc(C)cc2)N1S(=O)(=O)c1ccc(C)cc1 (some centres undefined)

Completion:
1: -1.57; 2: 0.353; 3: -3.52; 4: -2.6; 5: 0.0313; 6: 0.601

====

- procedure summary: JC-1 mitochondrial signal, unstimulated MM1S myeloma – cell-based, JC-1 fluorescence, 24 h, 100 nL compound, profiling panel (AID 1170); further: test concentration not given here
- measurement conditions: MM1S mitochondrial potential, higher = more signal
property name: z-score

Illustrative cases are given below, each with its answer.
- entry smiles: "COCCOC(=O)N1C(=O)[C@@]2(c3cc(C#CCNC(N)=O)ccc31)[C@H](C(=O)N1CCCCCCC1)[C@H]1C(=O)O[C@H](c3ccccc3)[C@H](c3ccccc3)N1[C@@H]2c1ccc(OCCO)cc1"
  result: -1.75
- entry smiles: "CO[C@H]1O[C@H](CO)[C@@H](OC(=O)Nc2cccc(F)c2)[C@H](OC(=O)Nc2ccc3c(c2)OCO3)[C@H]1OC(=O)Nc1ccc2c(c1)OCO2"
  result: -0.0179

Now consider the entry below.
Prompt: Using the record for C=CCN1C(=O)[C@@]2(O[C@@H](CCn3cc([C@H](O)c4ccccc4)nn3)[C@H]([Si](C)(C)c3ccc(OC)cc3)[C@H]2C)c2cc(NC(=O)c3ccc(OC)cc3)ccc21 , state its measured z-score.
Completion: -0.641

====

- procedure summary: JC-1 mitochondrial potential readout, lung cancer cells – cell-based, A549, JC-1 fluorescence, basal, 24 h, 100 nL, profiling panel (AID 1138);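 further: A549 lung adenocarcinoma cells under basal conditions with no added stimulus; test concentration not given here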
- measurement conditions: higher = more signal
Okay, here is how we bin by z-score: band 1 (below -0.8), band 2 (-0.8 to below -0.02), band 3 (-0.02 or more)

- molecule: "O=C1C[C@@](C(=O)NCc2ccccc2)(c2ccc([N+](=O)[O-])cc2)[C@@H](c2ccc(CO)cc2I)N1C1CCCCC1"
  classification: "band 2"
- molecule: "COCCOC(=O)N1C(=O)[C@@]2(c3cc(C#CCNC(N)=O)ccc31)[C@H](c1ccc(OCCO)cc1)N1[C@H](c3ccccc3)[C@H](c3ccccc3)OC(=O)[C@H]1[C@@H]2C(=O)N1CCN(c2ncccn2)CC1"
  classification: "band 1"
- molecule: "COC(=O)[C@@]1(Cc2ccc(OC)cc2)[C@H]2c3cc(C(=O)N4CCCC4)n(Cc4ccc(C)o4)c3C[C@H]2CN1C(=O)c1ccccc1"
  classification: "band 1"

Prompt: Hi there! Could you help me figure out the category for NC(=O)NCC#Cc1ccc2c(c1)[C@]1(C(=O)N2)[C@H](c2ccc(O)cc2)N2[C@H](c3ccccc3)[C@H](c3ccccc3)OC(=O)[C@H]2[C@@H]1C(N)=O please?
Completion: band 2

Prompt: Hi there! Could you help me figure out the category for COc1cc(C(O)C2C=CC3C(=O)N(C)C(=O)C3N2NC(=O)OC(C)(C)C)cc(OC)c1OC (stereo not given) please?
Completion: band 2

Prompt: Hi there! Could you help me figure out the category for CC(C)(C)OC(=O)CC[C@@]1(C(=O)N2CCCCC2)N=C(c2ccc(OCCCO)cc2)O[C@@H]1c1ccccc1CN=[N+]=[N-] please?
Completion: band 3
